Consider the following Ki data for UniProt:P21554, collected from several reports.
Sequence (P21554 whole entry): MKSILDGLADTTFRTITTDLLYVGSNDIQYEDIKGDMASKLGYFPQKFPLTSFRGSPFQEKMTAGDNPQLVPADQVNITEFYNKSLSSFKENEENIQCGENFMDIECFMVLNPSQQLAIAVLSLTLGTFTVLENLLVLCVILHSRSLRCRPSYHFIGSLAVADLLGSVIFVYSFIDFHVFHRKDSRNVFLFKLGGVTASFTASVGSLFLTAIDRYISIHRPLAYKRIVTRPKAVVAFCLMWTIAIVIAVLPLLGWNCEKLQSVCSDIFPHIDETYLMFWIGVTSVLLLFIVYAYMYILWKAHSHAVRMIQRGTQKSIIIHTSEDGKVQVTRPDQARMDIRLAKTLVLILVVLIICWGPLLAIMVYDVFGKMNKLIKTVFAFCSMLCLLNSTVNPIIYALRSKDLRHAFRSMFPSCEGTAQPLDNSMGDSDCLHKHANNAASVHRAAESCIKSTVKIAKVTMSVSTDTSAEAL
READOUT LABEL: Ki

1) COc1ccc(S(=O)(=O)c2cc(OC)ccc2S(=O)(=O)c2ccc([C@H](C)NC(=O)c3ccc(Cl)c(Cl)c3)cc2)cc1 | 84 nM
2) COc1ccc(S(=O)(=O)c2cc(OC)ccc2S(=O)(=O)c2ccc([C@H](C)NS(=O)(=O)Cc3ccccc3)cc2)cc1 | 79 nM
3) O=C(Cc1ccccc1)NC(NC(=O)Cc1ccccc1)c1ccc(N2CCCCC2)cc1 | > 20000 nM
4) CCCCCCCCCCOC(=O)c1c(O)c(-c2ccc(O)cc2)c[nH]c1=O | > 1000 nM
5) O=C(NCc1ccccc1)c1ccc(Br)c(S(=O)(=O)N2CCOCC2)c1 | > 1000 nM
6) COc1ccc(C(NC(=O)Cc2ccc(Cl)cc2)NC(=O)Cc2ccc(Cl)cc2)cc1 | > 20000 nM
